Tested on: RXF 393
Assay: NCI tumour cell line growth inhibition, 48 h
Activity calls are given as the source filed them. No stated cut-off is given here; in the data, active = GI50 up to about 1.1 µM and inactive = higher.
GI50 values for the molecules below.

CNc1nnc(CNc2ccc(-c3nnc(NC)n3N)cc2)n1N ... > 100 µM (inactive)

Exercise: # get_value(readout='GI50', item= O=[N+]([O-])/C(C(Cl)=C(Cl)Cl)=C(/Nc1ccccc1)Sc1ccccc1 )
Solution: 19.8 µM (inactive)

Exercise: Endpoint output: GI50 of c1ccc2c(c1)CCN(C1=NCCO1)C2 . Value?
Solution: > 10 µM (inactive)

Exercise: Looking for the measured GI50 of CSc1cnc2ccccc2c1SC1CN(Cc2ccccc2)c2ccccc2C1=O (centres undefined) , can you help?
Solution: > 100 µM (inactive)

* * *

Test system: OVCAR-3
Experiment: NCI tumour cell line growth inhibition, 48 h
The source made the active and inactive calls. Rule as the data show it: active = GI50 up to about 1.1 µM and inactive = higher.
// one of active, inactive, no free text

Use the examples below as a reference point.
CCOC(=O)Cc1nc(/C(C#N)=C/c2ccco2)[nH]c(=O)c1C#N ... inactive
COC(=O)C1(C(=O)OC)Cc2ccc(OC)cc2C2=C1C(=O)c1ccccc1C2=O ... active

Continue with the next compound.
Exercise: Could you kindly confirm the outcome this assay logged for O=C1Nc2nccnc2C(=O)N2CCC[C@@H]12 ?
Solution: inactive

* * *

Test system: HCT-15
measured-endpoint: GI50

OCc1nnn2c1CCC2 ... > 100 µM
Cc1cc(S(=O)(=O)Nc2nc(N)nc(N(C)C)n2)c(SC(C(=O)O)c2ccccc2)cc1Cl (configuration not stated) ... > 10 µM
NC(=O)COc1c(Br)cc(Br)cc1Br ... > 100 µM
CC(=O)OC12C(C)=C(C)C(=O)N1c1ccccc1N2C(C)=O (configuration not stated) ... > 100 µM
CC(C)CCCC(C)[C@H]1CC[C@H]2[C@@H]3CC[C@H]4C[C@@H](CCC=C(c5cc(Cl)c(O)c(C(=O)OC(C)(C)C)c5)c5cc(Cl)c(O)c(C(=O)OC(C)(C)C)c5)CC[C@]4(C)[C@H]3CC[C@]12C (some centres not stated) ... > 50 µM
O=C1/C=C(/c2ccc(O)cc2)[C@@H](O)Cc2ccc(O)cc2O1 ... > 100 µM
O=C([O-])C[n+]1ccccc1.c1ccncc1 ... > 100 µM
COc1ccc(C(=O)N/N=C/c2c(C)n(C)n(-c3ccccc3)c2=O)cc1 ... > 100 µM

Exercise: Value wanted: GI50 (HCT-15) of entry Cc1ccc(N2C(=O)C3C=CC(n4[nH]c(=O)n(Cc5ccccc5)c4=O)CC3C2=O)cc1 (configuration not stated)
Solution: > 100 µM

Exercise: Missing value: GI50, HCT-15, entry OCc1ccn2c1[C@@H](O)CC2 . Fill in?
Solution: > 100 µM

Exercise: // map CC(=O)NC1C(OCc2ccccc2)OC(CO)C(O)C1OC(C)C(=O)NC(C(=O)NC(CCC(=O)NCCCNc1ccc([N+](=O)[O-])c2[nH]c3ccccc3c(=O)c12)C(N)=O)C(C)C (configuration not stated) to recorded GI50 (system: HCT-15)
Solution: > 100 µM

Exercise: Quick check: GI50 on HCT-15, item CC(C)(C)NC(=S)N/N=C/c1ccccn1 ?
Solution: < 0.0159 µM

* * *

Test system: OVCAR-5
Experiment: NCI tumour cell line growth inhibition, 48 h
Active and inactive are the calls of the source. Rule as the data show it: active = GI50 up to about 1.1 µM and inactive = higher.
Would you mind answering with one of these outcomes? true = active, false = inactive

CC(=O)Nc1ccc(Nc2cc(O)nc(O)n2)cc1 ... false
CN(CCC(=O)O)C1=Nc2ccc(Cl)cc2C(c2ccccc2)=[N+]([O-])C1 ... false
CCc1n[nH]c(=O)n1/N=C(\C)c1ccccc1 ... false

Exercise: Hey, what did the test say about O=c1c(C(c2ccc3c(c2)Cc2ccccc2-3)c2c(O)oc3ccccc3c2=O)c(O)oc2ccccc12 ?
Solution: false

Exercise: Tell me the recorded outcome of this test for Oc1c(-c2ccccc2)sc2ccccc12 .
Solution: false

Exercise: Dear colleague, could you share the recorded outcome for Cc1ccc(C(=O)N(Cc2ccccc2)Cc2ccccc2)cc1/N=N/N(C)C when you have a moment?
Solution: false

Exercise: Could you check what this test reported for CCOC(=O)C1=C(C)NC(C)=C(C(=O)OCC)C1c1ccc(Cl)cc1 ?
Solution: false

Exercise: Could you check what this test reported for O=C1CN(C(=O)c2ccccc2)Cc2[nH]c3ccccc3c21 ?
Solution: false

Exercise: Check the results log: what was the call for C[S+]([O-])c1cc(=O)c2ccccc2s1 (stereo not given) ?
Solution: false

Exercise: For this compound, state the assay outcome: COc1ccc(/C=C/c2cc(=O)cc(/C=C/c3ccc(OC)c(O)c3)o2)cc1O
Solution: false
